Hello, the source for this data is the NIST ThermoML archive (doi:10.1016/j.jct.2009.11.004), in case you need it.

Examples of molecules with documented viscosity follow.
# Measurement Context: 298.15 K; 101.33 kPa; Liquid; Concentric cylinders viscometry
Numbers after ± are expanded uncertainties.

Noted for CCCCCCCCCC[n+]1ccccc1.O=S(=O)([N-]S(=O)(=O)C(F)(F)F)C(F)(F)F [1-decylpyridinium bis(trifluoromethylsulfonyl)imide] : its viscosity reads 151.93 ± 4 mPa·s

Noted for CCCC[n+]1ccccc1.O=S(=O)([N-]S(=O)(=O)C(F)(F)F)C(F)(F)F [1-butylpyridinium bis[(trifluoromethyl)sulfonyl]imide] : its viscosity reads 60.41 ± 1.4 mPa·s

---
Noted for CCCCCCCCCCCC[n+]1ccccc1.O=S(=O)([N-]S(=O)(=O)C(F)(F)F)C(F)(F)F [1-dodecylpyridinium bis(trifluoromethylsulfonyl)imide] : its viscosity reads 200.45 ± 5.7 mPa·s

Noted for CCCCCC[n+]1ccn(C)c1.O=S(=O)([N-]S(=O)(=O)C(F)(F)F)C(F)(F)F : its viscosity reads 68.54 ± 1.6 mPa·s

Noted for CCCCCCCC[n+]1ccccc1.O=S(=O)([N-]S(=O)(=O)C(F)(F)F)C(F)(F)F [1-octylpyridinium bis((trifluoromethyl)sulfonyl)amide] : its viscosity reads 114.34 ± 2.8 mPa·s

###

Examples of molecules with documented mass density follow.
# Measurement Context: 348.15 K; 101.33 kPa; Liquid; Vibrating tube method
Numbers after ± are expanded uncertainties.
Returns: string containing the numeric result and its unit.

The cases that follow already have their mass density on record.
Noted for CCCCCCCCCC[n+]1ccccc1.O=S(=O)([N-]S(=O)(=O)C(F)(F)F)C(F)(F)F [1-decylpyridinium bis(trifluoromethylsulfonyl)imide] : its mass density reads 1242 ± 1.6 kg/m3

Noted for CCCC[n+]1ccccc1.O=S(=O)([N-]S(=O)(=O)C(F)(F)F)C(F)(F)F [1-butylpyridinium bis[(trifluoromethyl)sulfonyl]imide] : its mass density reads 1401.5 ± 1.9 kg/m3

Noted for CCCCCCCC[n+]1ccccc1.O=S(=O)([N-]S(=O)(=O)C(F)(F)F)C(F)(F)F [1-octylpyridinium bis((trifluoromethyl)sulfonyl)amide] : its mass density reads 1284.1 ± 1.7 kg/m3

---
Noted for CCCCCCCCCCCC[n+]1ccccc1.O=S(=O)([N-]S(=O)(=O)C(F)(F)F)C(F)(F)F [1-dodecylpyridinium bis(trifluoromethylsulfonyl)imide] : its mass density reads 1208 ± 1.5 kg/m3

###

# Measurement Context: 313.15 K; 101.33 kPa; Liquid; Concentric cylinders viscometry
Examples of compounds with documented viscosity follow.
Reply with just the number (in mPa·s).

The cases that follow already have their viscosity on record.
Noted for CCCC[n+]1ccccc1.O=S(=O)([N-]S(=O)(=O)C(F)(F)F)C(F)(F)F [1-butylpyridinium bis[(trifluoromethyl)sulfonyl]imide] : its viscosity reads 32.83

Noted for CCCCCCCCCCCC[n+]1ccccc1.O=S(=O)([N-]S(=O)(=O)C(F)(F)F)C(F)(F)F [1-dodecylpyridinium bis(trifluoromethylsulfonyl)imide] : its viscosity reads 91.45

Noted for CCCCCCCCCC[n+]1ccccc1.O=S(=O)([N-]S(=O)(=O)C(F)(F)F)C(F)(F)F [1-decylpyridinium bis(trifluoromethylsulfonyl)imide] : its viscosity reads 72.07

---
Noted for CCCCCCCC[n+]1ccccc1.O=S(=O)([N-]S(=O)(=O)C(F)(F)F)C(F)(F)F [1-octylpyridinium bis((trifluoromethyl)sulfonyl)amide] : its viscosity reads 56.33

###

Examples of molecules with documented viscosity follow.
# Measurement Context: 293.15 K; 101.33 kPa; Liquid; Concentric cylinders viscometry
Numbers after ± are expanded uncertainties.

Noted for CCCC[n+]1ccccc1.O=S(=O)([N-]S(=O)(=O)C(F)(F)F)C(F)(F)F [1-butylpyridinium bis[(trifluoromethyl)sulfonyl]imide] : its viscosity reads 76.16 ± 1.8 mPa·s

Noted for CCCCCCCCCC[n+]1ccccc1.O=S(=O)([N-]S(=O)(=O)C(F)(F)F)C(F)(F)F [1-decylpyridinium bis(trifluoromethylsulfonyl)imide] : its viscosity reads 201.44 ± 5.7 mPa·s

---
Noted for CCCCCCCC[n+]1ccccc1.O=S(=O)([N-]S(=O)(=O)C(F)(F)F)C(F)(F)F [1-octylpyridinium bis((trifluoromethyl)sulfonyl)amide] : its viscosity reads 149.53 ± 3.9 mPa·s

Noted for CCCCCCCCCCCC[n+]1ccccc1.O=S(=O)([N-]S(=O)(=O)C(F)(F)F)C(F)(F)F [1-dodecylpyridinium bis(trifluoromethylsulfonyl)imide] : its viscosity reads 269.72 ± 8.3 mPa·s

###

# Assay Name: refractive index (Na D-line) (dimensionless)
# Measurement Context: 318.15 K; 101.33 kPa; Liquid; Standard Abbe refractometry
Examples of compounds with documented refractive index follow.
// return a plain number; no unit text

The cases that follow already have their refractive index on record.
Noted for CCCCCCCCCCCC[n+]1ccccc1.O=S(=O)([N-]S(=O)(=O)C(F)(F)F)C(F)(F)F [1-dodecylpyridinium bis(trifluoromethylsulfonyl)imide] : its refractive index reads 1.44379

Noted for CCCCCCCCCC[n+]1ccccc1.O=S(=O)([N-]S(=O)(=O)C(F)(F)F)C(F)(F)F [1-decylpyridinium bis(trifluoromethylsulfonyl)imide] : its refractive index reads 1.44239

Noted for CCCCCCCC[n+]1ccccc1.O=S(=O)([N-]S(=O)(=O)C(F)(F)F)C(F)(F)F [1-octylpyridinium bis((trifluoromethyl)sulfonyl)amide] : its refractive index reads 1.44115

Turning to the following compound.
Noted for CCCC[n+]1ccccc1.O=S(=O)([N-]S(=O)(=O)C(F)(F)F)C(F)(F)F [1-butylpyridinium bis[(trifluoromethyl)sulfonyl]imide] : its refractive index reads 1.43769

###

# Measurement Context: 293.15 K; 101.33 kPa; Liquid; Vibrating tube method
Examples of compounds with documented mass density follow.
Reply with just the number (in kg/m3).

The cases that follow already have their mass density on record.
Noted for CCCCCCCCCC[n+]1ccccc1.O=S(=O)([N-]S(=O)(=O)C(F)(F)F)C(F)(F)F [1-decylpyridinium bis(trifluoromethylsulfonyl)imide] : its mass density reads 1287.8

Noted for CCCCCCCCCCCC[n+]1ccccc1.O=S(=O)([N-]S(=O)(=O)C(F)(F)F)C(F)(F)F [1-dodecylpyridinium bis(trifluoromethylsulfonyl)imide] : its mass density reads 1253.1

Noted for CCCC[n+]1ccccc1.O=S(=O)([N-]S(=O)(=O)C(F)(F)F)C(F)(F)F [1-butylpyridinium bis[(trifluoromethyl)sulfonyl]imide] : its mass density reads 1452.5

Turning to the following compound.
Noted for CCCCCCCC[n+]1ccccc1.O=S(=O)([N-]S(=O)(=O)C(F)(F)F)C(F)(F)F [1-octylpyridinium bis((trifluoromethyl)sulfonyl)amide] : its mass density reads 1331.3

###

Examples of compounds with documented mass density follow.
# Measurement Context: 328.15 K; 101.33 kPa; Liquid; Vibrating tube method
± gives the expanded uncertainty stated by the source.
Returns: string containing the numeric result and its unit.

Noted for CCCCCCCCCCCC[n+]1ccccc1.O=S(=O)([N-]S(=O)(=O)C(F)(F)F)C(F)(F)F [1-dodecylpyridinium bis(trifluoromethylsulfonyl)imide] : its mass density reads 1224.1 ± 1.6 kg/m3

Noted for CCCCCCCCCC[n+]1ccccc1.O=S(=O)([N-]S(=O)(=O)C(F)(F)F)C(F)(F)F [1-decylpyridinium bis(trifluoromethylsulfonyl)imide] : its mass density reads 1258.5 ± 1.6 kg/m3

Noted for CCCC[n+]1ccccc1.O=S(=O)([N-]S(=O)(=O)C(F)(F)F)C(F)(F)F [1-butylpyridinium bis[(trifluoromethyl)sulfonyl]imide] : its mass density reads 1419.7 ± 1.9 kg/m3

Turning to the following compound.
Noted for CCCCCCCC[n+]1ccccc1.O=S(=O)([N-]S(=O)(=O)C(F)(F)F)C(F)(F)F [1-octylpyridinium bis((trifluoromethyl)sulfonyl)amide] : its mass density reads 1301.1 ± 1.7 kg/m3

###

# Measurement Context: 308.15 K; 101.33 kPa; Liquid; Vibrating tube method
Readout Label: mass density (kg/m3)
Reply with just the number (in kg/m3).

Noted for CCCCCCCC[n+]1ccccc1.O=S(=O)([N-]S(=O)(=O)C(F)(F)F)C(F)(F)F [1-octylpyridinium bis((trifluoromethyl)sulfonyl)amide] : its mass density reads 1318.2

Noted for CCCCCCCCCCCC[n+]1ccccc1.O=S(=O)([N-]S(=O)(=O)C(F)(F)F)C(F)(F)F [1-dodecylpyridinium bis(trifluoromethylsulfonyl)imide] : its mass density reads 1240.5

Noted for CCCC[n+]1ccccc1.O=S(=O)([N-]S(=O)(=O)C(F)(F)F)C(F)(F)F [1-butylpyridinium bis[(trifluoromethyl)sulfonyl]imide] : its mass density reads 1438.3

Turning to the following compound.
Noted for CCCCCCCCCC[n+]1ccccc1.O=S(=O)([N-]S(=O)(=O)C(F)(F)F)C(F)(F)F [1-decylpyridinium bis(trifluoromethylsulfonyl)imide] : its mass density reads 1275.1

###

# Measurement Context: 298.15 K; 101.33 kPa; Liquid; Vibrating tube method
Examples of compounds with documented mass density follow.
Reply with just the number (in kg/m3).

The cases that follow already have their mass density on record.
Noted for CCCCCC[n+]1ccn(C)c1.O=S(=O)([N-]S(=O)(=O)C(F)(F)F)C(F)(F)F : its mass density reads 1370.8

Noted for CCCCCCCCCC[n+]1ccccc1.O=S(=O)([N-]S(=O)(=O)C(F)(F)F)C(F)(F)F [1-decylpyridinium bis(trifluoromethylsulfonyl)imide] : its mass density reads 1283.5

Noted for CCCCCCCCCCCC[n+]1ccccc1.O=S(=O)([N-]S(=O)(=O)C(F)(F)F)C(F)(F)F [1-dodecylpyridinium bis(trifluoromethylsulfonyl)imide] : its mass density reads 1248.8

Noted for CCCCCCCC[n+]1ccccc1.O=S(=O)([N-]S(=O)(=O)C(F)(F)F)C(F)(F)F [1-octylpyridinium bis((trifluoromethyl)sulfonyl)amide] : its mass density reads 1326.8

Turning to the following compound.
Noted for CCCC[n+]1ccccc1.O=S(=O)([N-]S(=O)(=O)C(F)(F)F)C(F)(F)F [1-butylpyridinium bis[(trifluoromethyl)sulfonyl]imide] : its mass density reads 1447.6
